Just for reference, patent US5416081A is where these values come from.

Recorded MIC, one value per entry.
tested on: A. calcoaceticus /15473A; experiment: MIC against standard strain by two-fold agar dilution, A. calcoaceticus /15473A; format: cell-based; conditions: Acinetobacter calcoaceticus; A. calcoaceticus /15473A; Muller-Hinton agar, 37° C., 20 hours; read-out: MIC
observable: MIC (µg/mL)

{"columns": ["compound", "measure-unit", "value"],
 "data": [
  ["C[C@H](O/N=C(\\C(=O)NC1C(=O)N2C(C(=O)[O-])=C(CSc3nc(N)c4c([n+]3C)CCC4)CSC12)c1csc(N)n1)C(=O)O (stereo partly drawn) [I-6(S)]", "µg/mL", 4],
  ["C[n+]1c(SCC2=C(C(=O)[O-])N3C(=O)C(NC(=O)/C(=N\\OC4(C(=O)O)CCCC4)c4csc(N)n4)C3SC2)nc(N)c2c1CCC2 (stereo not drawn)", "µg/mL", 2],
  ["Nc1nc(/C(=N/OC2(C(=O)O)CCCC2)C(=O)NC2C(=O)N3C(C(=O)[O-])=C(CSc4nc(N)c5c([n+]4N)CCC5)CSC23)cs1 (stereo not drawn)", "µg/mL", 1]
]}

---

System: S. aureus/giorigio
Experiment: MIC against standard strain by two-fold agar dilution, S. aureus/giorigio
Format: cell-based
Conditions: Staphylococcus aureus; S. aureus/giorigio; Muller-Hinton agar, 37° C., 20 hours; read-out: MIC
Procedure: These MIC values were taken by employing a two-fold dilution method: that is, two-fold serial dilutions of each of the test compounds were made and dispersed in a Muller-Hinton agar medium; 2 μl of the standard test strain which had the 10^7 CFU(Colony Forming Unit) per ml was inoculated on the medium; and these were incubated at 37° C. for 20 hours.
observable: MIC (µg/mL)

{"columns": ["compound", "observable", "measure-unit", "value"],
 "data": [
  ["C[n+]1c(SCC2=C(C(=O)[O-])N3C(=O)C(NC(=O)/C(=N\\OC(C)(C)C(=O)O)c4csc(N)n4)C3SC2)nc(N)c2c1CCC2 (stereo not drawn)", "MIC", "µg/mL", 1],
  ["C[n+]1c(SCC2=C(C(=O)[O-])N3C(=O)C(NC(=O)/C(=N\\OC4(C(=O)O)CCCC4)c4csc(N)n4)C3SC2)nc(N)c2c1CCC2 (stereo not drawn)", "MIC", "µg/mL", 2],
  ["C[C@H](O/N=C(\\C(=O)NC1C(=O)N2C(C(=O)[O-])=C(CSc3nc(N)c4c([n+]3N)CCC4)CSC12)c1csc(N)n1)C(=O)O (stereo partly drawn) [I-5(S)]", "MIC", "µg/mL", 2]
]}

---

system: E. coli/10536; assay: MIC against standard strain by two-fold agar dilution, E. coli/10536; type: cell-based; details: Escherichia coli; E. coli/10536; Muller-Hinton agar, 37° C., 20 hours; read-out: MIC
observable: MIC (µg/mL)

{"columns": ["compound", "observable", "value"],
 "data": [
  ["C[n+]1c(SCC2=C(C(=O)[O-])N3C(=O)C(NC(=O)/C(=N\\OC4(C(=O)O)CCCC4)c4csc(N)n4)C3SC2)nc(N)c2c1CCC2 (stereo not drawn) [Compound I-12]", "MIC", 0.016],
  ["CO/N=C(\\C(=O)NC1C(=O)N2C(C(=O)[O-])=C(CSc3nc(N)c4c([n+]3N)CCC4)CSC12)c1csc(N)n1 (stereo not drawn) [Compound I-10]", "MIC", 0.016],
  ["C[C@H](O/N=C(\\C(=O)NC1C(=O)N2C(C(=O)[O-])=C(CSc3nc(N)c4c([n+]3C)CCC4)CSC12)c1csc(N)n1)C(=O)O (stereo partly drawn) [I-6(S)]", "MIC", 0.016],
  ["C[n+]1c(SCC2=C(C(=O)[O-])N3C(=O)C(NC(=O)/C(=N\\OC(C)(C)C(=O)O)c4csc(N)n4)C3SC2)nc(N)c2c1CCC2 (stereo not drawn) [Compound I-2]", "MIC", 0.13],
  ["Nc1nc(/C(=N/OCC(=O)O)C(=O)NC2C(=O)N3C(C(=O)[O-])=C(CSc4nc(N)c5c([n+]4N)CCC5)CSC23)cs1 (stereo not drawn) [Compound I-8]", "MIC", 0.016],
  ["Nc1nc(/C(=N/OC2(C(=O)O)CCCC2)C(=O)NC2C(=O)N3C(C(=O)[O-])=C(CSc4nc(N)c5c([n+]4N)CCC5)CSC23)cs1 (stereo not drawn) [Compound I-11]", "MIC", 0.016]
]}

---

system: P. aeruginosa/10145; assay: MIC against standard strain by two-fold agar dilution, P. aeruginosa/10145; assay type: cell-based; conditions: Pseudomonas aeruginosa; P. aeruginosa/10145; Muller-Hinton agar, 37° C., 20 hours; read-out: MIC
Recorded MIC, one value per entry.
observable: MIC

{"columns": ["compound", "value"],
 "data": [
  ["CO/N=C(\\C(=O)NC1C(=O)N2C(C(=O)[O-])=C(CSc3nc(N)c4c([n+]3N)CCC4)CSC12)c1csc(N)n1 (centres unmarked)", "4 µg/mL"],
  ["Nc1nc(/C(=N/OCC(=O)O)C(=O)NC2C(=O)N3C(C(=O)[O-])=C(CSc4nc(N)c5c([n+]4N)CCC5)CSC23)cs1 (centres unmarked)", "1 µg/mL"],
  ["CC(C)(O/N=C(\\C(=O)NC1C(=O)N2C(C(=O)[O-])=C(CSc3nc(N)c4c([n+]3N)CCC4)CSC12)c1csc(N)n1)C(=O)O (centres unmarked)", "1 µg/mL"],
  ["Nc1nc(/C(=N/OC2(C(=O)O)CCCC2)C(=O)NC2C(=O)N3C(C(=O)[O-])=C(CSc4nc(N)c5c([n+]4N)CCC5)CSC23)cs1 (centres unmarked)", "1 µg/mL"],
  ["C[n+]1c(SCC2=C(C(=O)[O-])N3C(=O)C(NC(=O)/C(=N\\OC(C)(C)C(=O)O)c4csc(N)n4)C3SC2)nc(N)c2c1CCC2 (centres unmarked)", "1 µg/mL"],
  ["C[C@H](O/N=C(\\C(=O)NC1C(=O)N2C(C(=O)[O-])=C(CSc3nc(N)c4c([n+]3N)CCC4)CSC12)c1csc(N)n1)C(=O)O (stereo partly drawn) [I-5(S)]", "2 µg/mL"],
  ["C[C@H](O/N=C(\\C(=O)NC1C(=O)N2C(C(=O)[O-])=C(CSc3nc(N)c4c([n+]3C)CCC4)CSC12)c1csc(N)n1)C(=O)O (stereo partly drawn) [I-6(S)]", "2 µg/mL"],
  ["C[n+]1c(SCC2=C(C(=O)[O-])N3C(=O)C(NC(=O)/C(=N\\OC4(C(=O)O)CCCC4)c4csc(N)n4)C3SC2)nc(N)c2c1CCC2 (centres unmarked)", "2 µg/mL"]
]}
